Hello, the source for this data is ChEMBL document CHEMBL1139533, in case you need it.

Some compounds, each annotated with its measured pIC50.
System: CCRF-CEM
EXPERIMENT SUMMARY: Cytostatic activity to the compound against CEM cell line
Type: functional, cell-based
CONDITION: Homo sapiens
pIC50: −log10 of the molar value.

| CHEMICAL SMILES | RELATION SIGN | pIC50 |
| --- | --- | --- |
| CN[C@H](CC(C)C)C(=O)N[C@H]1C(=O)N[C@@H](CC(N)=O)C(=O)N[C@H]2C(=O)N[C@H]3C(=O)N[C@H](C(=O)N[C@H](C(=O)O)c4cc(O)cc(O)c4-c4cc3ccc4O)[C@H](O)c3ccc(cc3)Oc3cc2cc(c3O)Oc2ccc(cc2)[C@H]1O | < | 3.60 |
| CN[C@H](CC(C)C)C(=O)N[C@H]1C(=O)N[C@@H](CC(N)=O)C(=O)N[C@H]2C(=O)N[C@H]3C(=O)N[C@H](C(=O)N[C@H](C(=O)NCCCCCCCCCCN)c4cc(O)cc(O)c4-c4cc3ccc4O)[C@H](O)c3ccc(cc3)Oc3cc2cc(c3O)Oc2ccc(cc2Cl)[C@H]1O | = | 3.69 |
| CN[C@H](CC(C)C)C(=O)N[C@H]1C(=O)N[C@@H](CC(N)=O)C(=O)N[C@H]2C(=O)N[C@H]3C(=O)N[C@H](C(=O)N[C@H](C(=O)NCC45CC6CC(CC(C6)C4)C5)c4cc(O)cc(O)c4-c4cc3ccc4O)[C@H](O)c3ccc(cc3)Oc3cc2cc(c3O)Oc2ccc(cc2)[C@H]1O | = | 3.78 |
| NC(=O)C[C@@H]1NC(=O)[C@H](N)[C@H](O)c2ccc(c(Cl)c2)Oc2cc3cc(c2O)Oc2ccc(cc2)[C@@H](O)[C@@H]2NC(=O)[C@H](NC(=O)[C@@H]3NC1=O)c1ccc(O)c(c1)-c1c(O)cc(O)cc1[C@@H](C(=O)O)NC2=O | < | 3.60 |
